- TARGET_DESC: Sodium-dependent dopamine transporter (Homo sapiens); further: assay procedure not described here
- Sequence (Q01959 whole entry): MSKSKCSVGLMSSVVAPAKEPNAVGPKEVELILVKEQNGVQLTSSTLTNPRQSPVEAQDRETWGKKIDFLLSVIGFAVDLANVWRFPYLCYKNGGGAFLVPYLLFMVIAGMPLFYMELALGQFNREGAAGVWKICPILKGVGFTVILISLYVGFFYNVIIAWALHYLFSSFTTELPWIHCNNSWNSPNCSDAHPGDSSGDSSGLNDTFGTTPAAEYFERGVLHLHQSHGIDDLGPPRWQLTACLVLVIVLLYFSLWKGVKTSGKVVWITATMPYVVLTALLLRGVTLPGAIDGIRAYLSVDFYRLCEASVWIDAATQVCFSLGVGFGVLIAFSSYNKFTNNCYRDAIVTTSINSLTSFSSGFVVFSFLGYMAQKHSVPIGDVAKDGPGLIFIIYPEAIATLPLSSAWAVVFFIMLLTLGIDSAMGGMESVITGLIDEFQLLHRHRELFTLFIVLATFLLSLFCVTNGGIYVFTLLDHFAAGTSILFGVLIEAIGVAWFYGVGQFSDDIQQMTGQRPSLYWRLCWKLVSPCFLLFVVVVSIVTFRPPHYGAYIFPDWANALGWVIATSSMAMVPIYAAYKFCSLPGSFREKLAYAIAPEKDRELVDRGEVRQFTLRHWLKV
Documented AC50 across a set of compounds
TEST_READOUT: AC50

COMPOUND	TEST_READOUT	RESULT_VALUE
CC[C@@H]([C@H](C)O)n1ncn(-c2ccc(N3CCN(c4ccc(OC[C@@H]5CO[C@@](Cn6cncn6)(c6ccc(F)cc6F)C5)cc4)CC3)cc2)c1=O	AC50	> 30 µM
OCc1cc(C(O)CNCCCCCCOCCCCc2ccccc2)ccc1O (configuration not stated)	AC50	0.845 µM
CC(CCc1ccc(O)cc1)NCCc1ccc(O)c(O)c1 (configuration not stated)	AC50	0.897 µM
CCCN[C@H]1CCc2nc(N)sc2C1 [PRAMIPEXOLE]	AC50	> 30 µM
COCC1=C(C(=O)O)N2C(=O)[C@@H](NC(=O)/C(=N\OC)c3csc(N)n3)[C@H]2SC1	AC50	> 30 µM
CCCCC(=O)O[C@]1(C(=O)CO)[C@@H](C)C[C@H]2[C@@H]3CCC4=CC(=O)C=C[C@]4(C)[C@@]3(F)[C@@H](O)C[C@@]21C [BETAMETHASONE VALERATE]	AC50	> 30 µM
Clc1ccc2c(N3CCN(CCCN4CCN(c5ccnc6cc(Cl)ccc56)CC4)CC3)ccnc2c1	AC50	> 30 µM
